Test system: LOC_OS01G60700-cb002
Test: thermal shift delta Tm vs DMSO control; higher = stronger stabilization (binding);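 also: purified Escherichia coli-expressed rice kinase domain construct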
Settings: 12.5 µM; protein concentration 2 µM
Each entry falls in a class defined on thermal shift delta Tm; the bands are low bracket: < 0.4 °C; middle bracket: ≥ 0.4 °C and < 0.8 °C; high bracket: ≥ 0.8 °C

Some entries whose results are on file:
COc1ccc(CNC(=O)Nc2ncc([N+](=O)[O-])s2)cc1 :: high bracket
CCCCCCCCCCCCCCCCOP(=O)([O-])OCC[N+](C)(C)C :: low bracket
COc1cc2ncnc(Oc3ccc(CC(=O)Nc4cnn(C(C)C)c4)cc3)c2cc1OC :: high bracket
CN(C)CCCn1cc(C2=C(c3c[nH]c4ccccc34)C(=O)NC2=O)c2ccccc21 :: high bracket
CC(C)(C)c1nc(-c2ccc(NC(=O)Nc3cccc(C(F)(F)F)c3)c3ccccc23)c2c(N)nccn12 :: low bracket
Cn1ncc(Cl)c1-c1cc(C(=O)N[C@H](CN)Cc2ccc(F)c(F)c2)oc1Cl :: high bracket

Sort `C=CC(=O)Nc1cccc(Sc2nc(Nc3ccc(N4CCN(C)CC4)cc3)ncc2Cl)c1` into one of the categories.
middle bracket

----------
Test system: LOC_OS01G60700-cb002
Experiment: thermal shift delta Tm vs DMSO control; higher = stronger stabilization (binding)
Settings: 12.5 µM; protein concentration 2 µM
Decide by thermal shift delta Tm: equal to or exceeding 1 °C means yes (1), less means no (0).

Below, 5 molecules whose answers are already recorded.
CC(C)(C)c1cc(NC(=O)Nc2ccc(-c3cn4c(n3)sc3cc(OCCN5CCOCC5)ccc34)cc2)no1 :: yes (1)
COc1cc2c(Oc3ccc(NC(=O)C4(C(=O)Nc5ccc(F)cc5)CC4)cc3F)ccnc2cc1OCCCN1CCOCC1 :: no (0)
CN1CCN(c2ccc(-c3ccncc3-c3cc(F)c(O)c(F)c3)cc2)CC1 :: no (0)
Oc1cccc(-c2nc(N3CCOCC3)c3oc4ncccc4c3n2)c1 :: yes (1)
O=C(NC[C@H](O)CO)c1ccncc1Nc1ccc(I)cc1F :: no (0)

// inclusive: thermal shift delta Tm at least 1 °C? input: `C=CC(=O)N1CC[C@@H](Oc2nc(Nc3ccc(N4CCC(N5CCN(C)CC5)CC4)cc3)c(C(N)=O)nc2CC)C1`
no (0)

Record `O=c1[nH]nc(Sc2ncc([N+](=O)[O-])s2)n1-c1ccc2c(c1)OCCO2` ; criterion: thermal shift delta Tm no lower than 1 °C. Met?
yes (1)

Is it the case that `CCOc1cc(N2CCC(O)CC2)ccc1Nc1ncc2c(n1)N(C)c1ccccc1C(=O)N2C` has thermal shift delta Tm reaching or exceeding 1 °C?
yes (1)

----------
Tested on: LOC_OS01G60700-cb002
Test: thermal shift delta Tm vs DMSO control; higher = stronger stabilization (binding)
Conditions: 12.5 µM; protein concentration 2 µM
parameter.measured: thermal shift delta Tm
Returns: string containing the numeric result and its unit.

Solved entries (count: 5):
O=C(O)c1cc(O)c2c(c1)[C@@H]([C@H]1c3cc(C(=O)O)cc(O)c3C(=O)c3c(O[C@@H]4O[C@H](CO)[C@@H](O)[C@H](O)[C@H]4O)cccc31)c1cccc(O[C@@H]3O[C@H](CO)[C@@H](O)[C@H](O)[C@H]3O)c1C2=O [Sennoside B] :: 2.73 °C
COCCNCc1ccc(-c2cc3nccc(Oc4ccc(NC(=O)C5(C(=O)Nc6ccc(F)cc6)CC5)cc4F)c3s2)nc1 :: -0.27 °C
O=c1cc(N2CCOCC2)oc2c(-c3cccc4c3sc3ccccc34)cccc12 :: -0.43 °C
COc1ccc(CC(=O)Nc2nc3c(s2)CCc2ccccc2-3)cc1OC :: 0.11 °C
O=c1ncn2nc(Sc3ccc(F)cc3F)ccc2c1-c1c(Cl)cccc1Cl :: 0.86 °C

Dear colleague, I am looking for the recorded thermal shift delta Tm of the following compound: `Cn1ncc(Cl)c1-c1cc(C(=O)N[C@H](CN)Cc2cccc(F)c2)sc1Cl`
0.77 °C

Please report the recorded thermal shift delta Tm for `CCCCCCCCCCCCc1ccc(S(=O)(=O)Nc2nncs2)cc1` .
0.86 °C

Would you mind telling me what thermal shift delta Tm value was observed for CC[C@H](CO)Nc1nc(NCc2ccccc2)c2ncn(C(C)C)c2n1 [Roscovitine (Seliciclib,CYC202)] ?
0.89 °C

----------
Below is a list of entries, each paired with its recorded thermal shift delta Tm value.
Tested on: LOC_OS04G38480-cb003
Sequence (as listed by the source): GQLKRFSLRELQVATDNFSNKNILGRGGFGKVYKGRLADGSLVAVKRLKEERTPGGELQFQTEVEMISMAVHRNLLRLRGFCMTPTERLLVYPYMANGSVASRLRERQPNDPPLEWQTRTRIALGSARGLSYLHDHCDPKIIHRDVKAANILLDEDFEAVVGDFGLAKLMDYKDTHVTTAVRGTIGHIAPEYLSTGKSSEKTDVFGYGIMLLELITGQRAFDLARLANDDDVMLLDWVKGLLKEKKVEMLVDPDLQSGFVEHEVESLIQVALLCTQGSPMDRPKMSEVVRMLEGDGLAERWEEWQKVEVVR
Test: thermal shift delta Tm vs DMSO control; higher = stronger stabilization (binding)
Conditions: 12.5 µM; protein concentration 2 µM
A number alone suffices; assume °C.

Cc1ccc(NC(=O)c2cccc(C(C)(C)C#N)c2)cc1Nc1ccc2ncn(C)c(=O)c2c1 :: 0.88
COc1ccc(-c2nc(N3CCOCC3)c3sc(CN(C)c4ncc(C(=O)NO)cn4)cc3n2)cn1 :: 0.82

thermal shift delta Tm lookup needed for CCn1c(N)c(C(=O)NC)c(=O)c2ccc(C#CC(C)(O)COC)nc21 (centres undefined) , thanks.
0.68

Entry under review: `CN1CCN(c2cccc(Nc3nc4c(-c5ccc(S(C)(=O)=O)cc5)cccn4n3)c2)CC1` . Reported thermal shift delta Tm?
1.42

Need thermal shift delta Tm, item `COCC(=O)NC/C=C/c1ccc2ncnc(Nc3ccc(Oc4ccc(C)nc4)c(C)c3)c2c1`
0.14

Quick check: thermal shift delta Tm of `CC(C)NC[C@@H](C(=O)N1CCN(c2ncnc3c2[C@H](C)C[C@H]3O)CC1)c1ccc(Cl)cc1` ?
1.01

Which thermal shift delta Tm is reported for this compound? `Oc1cc(O)cc(/C=C/c2ccc(O)c(O)c2)c1`
1.45

Reported thermal shift delta Tm for `COC1(c2sc3c(N4CCOCC4)nc(-c4cnc(N)nc4)nc3c2C)COC1` : what is it?
1.11

Entry under review: `O=C(O)c1ccc2c(c1)nc(Nc1cccc(Cl)c1)c1ccncc12` . Reported thermal shift delta Tm?
1.13

----------
Tested on: LOC_OS05G07850-cb002
Experiment: thermal shift delta Tm vs DMSO control; higher = stronger stabilization (binding)
Settings: 12.5 µM; protein concentration 2 µM
Classify by thermal shift delta Tm. Ranges: bottom end (below 0.8 °C), midrange (0.8 °C to below 5 °C), top end (5 °C or more)

The following compounds have reported results that may help.
COc1cc2ncnc(Nc3ccc(Cl)cc3F)c2cc1OC :: top end
CCOc1ccn(-c2ccc(F)cc2)c(=O)c1C(=O)Nc1ccc(Oc2ccnc(N)c2Cl)c(F)c1 :: top end
CC(C)(C)c1cnc(CSc2cnc(NC(=O)C3CCNCC3)s2)o1 :: bottom end
CC(=O)Nc1cccc(-n2c(=O)n(C3CC3)c(=O)c3c(Nc4ccc(I)cc4F)n(C)c(=O)c(C)c32)c1 :: midrange
Clc1ccc(Nc2nnc(Cc3ccncc3)c3ccccc23)cc1 [Vatalanib (PTK787) 2HCl] :: bottom end

Assign a category based on measured thermal shift delta Tm for `N#Cc1ccc2[nH]c(O)c(-c3ccc(CN4CCOCC4)cn3)c2c1` and give only the class name.
midrange

Which category fits this record: `CNc1nc(-c2ccc3c(N)n[nH]c3c2)cc(N2C[C@@H](C(=O)NC3CCCCC3)CC[C@H]2C)n1`
midrange

Each compound maps to one class by thermal shift delta Tm. Which class for `CN(C)CCOc1ccc(-c2nc(-c3ccncc3)c(-c3ccc4c(c3)CC/C4=N\O)[nH]2)cc1` ?
midrange

For this compound, which bin applies? `O=C(Nc1cccnc1)c1cc(-c2ccnc(F)c2)ccc1OCc1ccccc1`
midrange

Sort `CCn1c(=O)c(-c2ccc(Cl)cc2Cl)cc2cnc(Nc3ccc(N4CCNCC4)c(F)c3)nc21` into one of the categories.
top end

Which category fits this record: `Cn1cc(-c2cnn3c(N)c(Br)c([C@@H]4CCCNC4)nc23)cn1`
top end

Which thermal shift delta Tm band matches `Cc1cc(NC(=O)c2cccc(NC(=O)/C=C/CN(C)C)c2)ccc1Nc1nccc(-c2cccnc2)n1` ?
midrange

Tag the class for `NC1(Cc2ccc(Cl)cc2)CCN(c2ncnc3[nH]ccc23)CC1`
midrange

In plain terms, what class is `C#Cc1cccc(Nc2ncnc3cc(OCCOC)c(OCCOC)cc23)c1` ?
top end

----------
Tested on: LOC_OS01G01410-cb001
Experiment: thermal shift delta Tm vs DMSO control; higher = stronger stabilization (binding)
Conditions: 12.5 µM; protein concentration 2 µM
Let's look at some compounds and their measured thermal shift delta Tm.
Numeric answer only, unit °C assumed.

// solved cases for thermal shift delta Tm follow
CN(C)C/C=C/C(=O)Nc1cc2c(Nc3ccc(F)c(Cl)c3)ncnc2cc1O[C@H]1CCOC1 [Afatinib (BIBW2992)] :: 1.12
CC(C)(O)CNc1ncc(-c2ccnc(Nc3ccncc3)n2)c(CC2CC2)n1 :: 0.51
C[C@H](Nc1ncnc2nc[nH]c12)c1cc2cccc(Cl)c2c(=O)n1-c1ccccc1 :: -0.46

What thermal shift delta Tm appears in the records for this compound with LOC_OS01G01410-cb001? `Cn1ncc(Cl)c1-c1cc(C(=O)N[C@H](CN)Cc2cccc(F)c2)sc1Cl`
0.78

Can you look up thermal shift delta Tm on LOC_OS01G01410-cb001 for `O=C1Nc2ccc(CN3C(=O)CSC3=O)cc2/C1=C/c1cc(CN2CCOCC2)c[nH]1` ?
1.25

# query: thermal shift delta Tm | item `COc1ncc(-c2ccc3nccc(-c4ccnnc4)c3c2)cc1NS(=O)(=O)c1ccc(F)cc1F` | system: LOC_OS01G01410-cb001
1.94

What value of thermal shift delta Tm on LOC_OS01G01410-cb001 does `Nc1ncc(-c2ccnc(Nc3ccncc3)n2)c(CC2CC2)n1` have?
0.71

Find thermal shift delta Tm (LOC_OS01G01410-cb001) for the entry `COc1ccccc1-c1cc(Nc2cccc(CS(N)(=O)=O)c2)ncn1`
0.57

Which thermal shift delta Tm is reported with LOC_OS01G01410-cb001 for this entry: `COc1ccc(CNC(=O)Nc2ncc([N+](=O)[O-])s2)cc1` ?
0.9

Requested read-out thermal shift delta Tm, target or system LOC_OS01G01410-cb001, entry CC(C)c1c2cc(-c3ccnc(NC4CCC(NC5CCOCC5)CC4)n3)ccc2nn1C (stereo not drawn)
1.15

What is its thermal shift delta Tm for LOC_OS01G01410-cb001? Entry: CN1CCN(c2ccc3nc(-c4c(N)c5c(F)cccc5[nH]c4=O)[nH]c3c2)CC1 [Dovitinib (TKI-258, CHIR-258)]
6.03

Lab request: please report thermal shift delta Tm under test system LOC_OS01G01410-cb001 for `CCS(=O)(=O)Nc1ccc2c(c1)/C(=C(/Nc1ccc(CN3CCCCC3)cc1)c1ccccc1)C(=O)N2`
1.67
